Every entry's value here was drawn from PubChem BioAssay AID778.

Catalogue of inhibition values
study target: Cytochrome P450 2C19 (Homo sapiens) (UniProt P33261)
Sequence (P33261 whole entry, looked up): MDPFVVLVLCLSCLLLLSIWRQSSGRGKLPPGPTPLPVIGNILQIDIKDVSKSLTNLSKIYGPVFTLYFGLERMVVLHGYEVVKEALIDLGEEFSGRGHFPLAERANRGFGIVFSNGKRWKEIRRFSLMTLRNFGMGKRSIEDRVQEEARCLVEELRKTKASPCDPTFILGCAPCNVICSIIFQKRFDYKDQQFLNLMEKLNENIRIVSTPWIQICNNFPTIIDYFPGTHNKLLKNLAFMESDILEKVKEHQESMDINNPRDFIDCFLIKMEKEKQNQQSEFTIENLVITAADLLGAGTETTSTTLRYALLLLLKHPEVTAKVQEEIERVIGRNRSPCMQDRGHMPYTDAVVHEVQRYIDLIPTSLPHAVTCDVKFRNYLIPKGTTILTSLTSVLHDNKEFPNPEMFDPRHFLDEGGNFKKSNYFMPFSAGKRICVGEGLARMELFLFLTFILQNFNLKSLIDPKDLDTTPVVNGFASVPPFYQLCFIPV
assay remarks: blockers of cytochrome P450 2C19 activity – biochemical, luminescence, ADME assay, primary screen (AID 778);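 further: plate controls were negative control wells for no effect and 2.5 mM tranylcypromine positive control for full effect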
condition summary: CYP2C19 Supersomes, luciferin-H EGE luminescence, 30 min; at 5 µM; active compounds read high
Hit rate of the full screen: of about 96,000 compounds, about 20,000 (21%) were called active. Only a sample is shown.
The answer is to be given in %; state only the numeric part.

Worked cases, answers included:
>>> numeric_result("COc1ccc(-c2c3c(=O)n(C)c(=O)n(C)c3cn2-c2cccc(OC)c2)cc1")
-4
>>> numeric_result("CCN1C(=O)/C(=C2/Sc3ccccc3N2CCCS(=O)(=O)O)SC1=S")
0
>>> numeric_result("COC(=O)c1ccc(NC(=O)CSc2nnc(CNc3ccc(OC)cc3)n2C)cc1")
29.7
>>> numeric_result("CCn1c(SCC(=O)Nc2nccs2)nnc1-c1ccncc1")
66.7
>>> numeric_result("Nc1nc(Br)c2ccccc2c1-c1ccc(F)cc1")
18.7
>>> numeric_result("CN1CC(c2ccccc2)C2(COc3ccccc3C2=O)C12C(=O)Nc1ccccc12 (stereo unspecified)")
46.7
>>> numeric_result("Cc1ccccc1NC(=S)Nc1cccc([N+](=O)[O-])c1")
46.2
>>> numeric_result("CCC(=O)c1c[nH]c(C(=O)NCC2CCCO2)c1 (stereo unspecified)")
-4.8

The recorded inhibition for entry CC/C(=N/Nc1ccccc1)c1cnnc(SC)n1 equals -2.6

The recorded inhibition for entry CCc1nnc(NC(=O)CSc2nnc(-c3ccncc3)n2Cc2ccccc2)s1 equals 41.3

The recorded inhibition for entry CCCCSc1nnc(-c2ccc(NC(=O)CC)cc2)n1C equals 21.4

###

Catalogue of inhibition values
study target: Cytochrome P450 2C19 (Homo sapiens) (UniProt P33261)
assay remarks: blockers of cytochrome P450 2C19 activity – biochemical, luminescence, ADME assay, primary screen (AID 778);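 further: plate controls were negative control wells for no effect and 2.5 mM tranylcypromine positive control for full effect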
condition summary: CYP2C19 Supersomes, luciferin-H EGE luminescence, 30 min; at 5 µM; active compounds read high
The whole screen tested about 96,000 compounds, of which about 20,000 (21%) were called active. The list is a sample of the results.
The answer is to be given in %; state only the numeric part.

>>> numeric_result("O=C(Nc1nccs1)C1CCN(S(=O)(=O)c2ccc(Cl)c(C(F)(F)F)c2)CC1")
36.3
>>> numeric_result("COc1ccccc1Nc1nc(N)nc(CN(C)C2CCCCC2)n1")
-23.9
>>> numeric_result("O=C(c1ccco1)N1CCN(C(=O)C2CC(c3ccc(F)cc3)=NO2)CC1 (stereo unspecified)")
5.3
>>> numeric_result("CN(CC(=O)Nc1cccc2c1CCCC2)S(=O)(=O)c1ccc(Cl)cc1")
-15.4
>>> numeric_result("COc1ccccc1NC1=NC(c2ccc(Cl)cc2)N=C(N)N1 (stereo unspecified)")
92.6

Continue with the next molecule.
Per the reported Cytochrome P450 2C19 (Homo sapiens) (UniProt P33261) data, COc1ccccc1NC1=NC2(CCCC2)N=C(N)N1 has inhibition of -6

###

study target: Cytochrome P450 2C19 (Homo sapiens) (UniProt P33261)
assay remarks: blockers of cytochrome P450 2C19 activity – biochemical, luminescence, ADME assay, primary screen (AID 778);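 further: plate controls were negative control wells for no effect and 2.5 mM tranylcypromine positive control for full effect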
condition summary: CYP2C19 Supersomes, luciferin-H EGE luminescence, 30 min; at 5 µM; active compounds read high
Among all 96,000 compounds or so, about 20,000 (21%) were called active. These entries were drawn from the full list.
quantity kind: inhibition (%)
The answer is to be given in %; state only the numeric part.

Worked cases, answers included:
>>> numeric_result("O=C1CSC(c2cccc(F)c2)N1c1ccccc1F (stereo not given)")
32.9
>>> numeric_result("CC(=O)NC1(c2cccc(F)c2)CCN(CC(=O)NC(C)C)CC1")
3.9
>>> numeric_result("CCCN1Cc2cccc(C(=O)NCc3ccccc3)c2C1=O")
40.5
>>> numeric_result("CCOCCN(C=O)c1cccc(OC)c1")
26.6
>>> numeric_result("O=C(NCc1ccco1)C1(c2ccc(Cl)cc2)CCCC1")
39.8

The recorded inhibition for entry CCCSc1nsc(N)n1 equals 15.5

The recorded inhibition for entry COc1ccc(C(=O)Nc2ccc(CN3CCOCC3)cc2)cc1 equals 16.2

The recorded inhibition for entry Cc1ccc(O)c(CNc2nc3ccccc3n2C)c1 equals 39.6

The recorded inhibition for entry COc1nc(Oc2ccc(=O)n(C)n2)nc(N(C)C)n1 equals -17.1

The recorded inhibition for entry COc1ccc2occ(C(=O)c3ccc(N=C(C)N(C)C)cc3)c2c1 equals 30.2

The recorded inhibition for entry COc1ccc(C)cc1N(C)C(=O)c1coc(=O)c2ccccc12 equals 15.5

The recorded inhibition for entry CCCOP(=O)(c1ccc(N(C)C)cc1)C(O)c1cc(OC)c(OC)c(OC)c1 (stereo not given) equals 16.9
